# Test system: OCI-Ly3 cell lines
# Assay Details: Proliferation inhibition test, ABC-DLBCL cell line OCI-Ly3
# Assay type: cell-based
# Condition Summary: Homo sapiens; OCI-Ly3 (ABC-DLBCL, NF-κB pathway-dependent); 96 hours; Cell Counting Kit-8; read-out: Proliferation inhibitory activity against OCI-Ly3 IC50
Readout Name: pIC50
Entry type: numeric. Quantity: pIC50, the -log10 of concentration in molar units.

Solved cases (3 shown):
                                   compound  assay_value
0  Cn1cc(C(=O)c2cnn(-c3cncc4c(F)cccc34)c2C(F)(F)F)c2cc(Cl)c(-c3ncccn3)nc21 [Example 12]         6.68
1  C[C@@H]1CC(C(=O)c2cn(CCO)c3nc(-n4nccn4)c(Cl)cc23)C[C@@H](C)N1c1ncc(F)cc1I (stereo partly drawn) [Example 4]         6.35
2  C[C@@H]1C[C@H](C(=O)c2cn(C)c3nc(S(=O)(=O)N4CCNCC4)c(Cl)cc23)CCN1c1ncc(F)cc1Cl (racemic) [Example 36]         6.39

[in] State the recorded pIC50 for this entry: CCn1cc(C(=O)C2C[C@@H](C)N(c3ncc(F)cc3I)[C@H](C)C2)c2cc(Cl)c(-n3nccn3)nc21 (stereo partly drawn) [Example 14]
[out] 6.33

[in] Another compound: O=C(c1cnn(-c2cccc3c(F)cccc23)c1C(F)(F)F)c1c[nH]c2nc(-n3nccn3)c(Cl)cc12 [Example 23]
[out] 6.06

[in] Another compound: O=C(c1cnn(-c2cncc3sccc23)c1C(F)(F)F)c1cn(C2COC2)c2nc(-n3nccn3)c(Cl)cc12 [Example 25]
[out] 6.36

[in] Another compound: C[C@@H]1C[C@H](C(=O)c2cn(C)c3nc(-n4nccn4)c(Cl)cc23)CCN1c1ncncc1Br (racemic) [Example 33]
[out] 6.10

[in] Another compound: CCn1cc(C(=O)c2cnn(-c3cncc4c(F)cccc34)c2C(F)(F)F)c2cc(Cl)c(-n3nccn3)nc21 [Example 7]
[out] 6.89

[in] Another compound: Cn1cc(C(=O)c2cnn(-c3cncc4c(F)cccc34)c2C(F)(F)F)c2cc(Cl)c(-n3nccn3)nc21 [Example 6]
[out] 6.82

---

The following molecules each carry a recorded IC50 for C-terminal catalytic domain of MALT1 (amino acid residues 329-824) (Homo sapiens).
Provide the reading as a plain figure in nM.

Solved cases (6 shown):
>>> df
                                   molecule  assay_value
0  O=C(c1cnn(-c2cccc3c(F)cccc23)c1C(F)(F)F)c1c[nH]c2nc(-n3nccn3)c(Cl)cc12 [Example 23]           19
1  CCCn1cc(C(=O)c2cnn(-c3cncc4c(F)cccc34)c2C(F)(F)F)c2cc(Cl)c(-n3nccn3)nc21 [Example 8]           39
2  C[C@@H]1CC(C(=O)c2cn([C@@H]3CCOC3)c3nc(-n4nccn4)c(Cl)cc23)C[C@@H](C)N1c1ncc(F)cc1I (stereo partly shown) [Example 22]           70
3  C[C@@H]1CC(C(=O)c2cn(CCCO)c3nc(-c4ncccn4)c(Cl)cc23)C[C@@H](C)N1c1ncc(F)cc1I (stereo partly shown) [Example 9]           69
4  Cn1cc(C(=O)c2cnn(-c3ccnc4sccc34)c2C(F)(F)F)c2cc(Cl)c(-n3nccn3)nc21 [Example 24]           12
5  CCn1cc(C(=O)c2cnn(-c3cncc4c(F)cccc34)c2C(F)(F)F)c2cc(Cl)c(-c3ncccn3)nc21 [Example 13]           15

Now consider a different molecule.
[in] State the recorded IC50 for this entry: C[C@@H]1C[C@H](C(=O)c2c[nH]c3nc(C(=O)N4CCNCC4)c(Cl)cc23)CCN1c1ncc(F)cc1Cl (racemic) [Example 35]
[out] 37
